target: T1, HLA-A*24:02 (human); assay: UV-ligand exchange, anti-b2m ELISA; exchange yield grade (+ >10%, ++ >20%, +++ >50, ++++ >75%)
T1 construct: Peptide-receptive MHC monomer made by UV cleavage of a UV-sensitive peptide
binders and their reported peptide exchange yield

Illustrative cases are given below, each with its answer.
NFLPPIIARF | > 75%
VIAPIISNF | 50 to 75%
KYLSIPAVFF | > 75%

Tell me the measured peptide exchange yield of EYNNIQHLF , please.
50 to 75%

Can you look up the measured peptide exchange yield of SFDSNLLSF for me?
10 to 20%

# input binder: IFINLSPEF ; wanted: its peptide exchange yield
> 75%

Record request: peptide exchange yield value, item VWAKILSAF
50 to 75%

Requested read-out: peptide exchange yield. Entry: LVLDYSKDYNHW
10 to 20%

Which peptide exchange yield reading was recorded for the binder TYISKTIAL ?
50 to 75%

Given the entry VYGDGHYLTF , report its measured peptide exchange yield.
50 to 75%

Sample SYTKVEARL — what was its peptide exchange yield?
50 to 75%

What value of peptide exchange yield has been reported for the following binder? KYLSLSNSF
> 75%

Param item = KFLDSNIKF ; retrieve measured peptide exchange yield.
50 to 75%

Looking for the measured peptide exchange yield of IYGPKYIHPSF , can you help?
> 75%

# peptide exchange yield lookup, item YFEEAANFL
20 to 50%

// returns reported peptide exchange yield for input MYAKEFDLL
50 to 75%
